Readings of activity at 10 µM for the listed compounds
Test system: HBV viral production in AD38 cells
Assay: Viral load production in AD38 cells by quantitative PCR of the HBV core sequence in supernatant
Format: cell-based
Settings: Hepatitis B virus, 144 h; 10 μM compound, 6 days at 37° C., viral load in supernatant compared against DMSO control wells; read-out: AD38 Viral Load (CpAM/DMSO %) at 10 μM
# output: bare number, implied unit %

# Compound, Target Or System, Measurement Unit, activity at 10 µM
records = [
    ("O=C1Nc2cc(S(=O)(=O)Nc3cncnc3)ccc2[S+]([O-])c2ccccc21 (stereo not shown)", "HBV viral production in AD38 cells", "%", 72),
    ("O=C(NCCc1cncnc1)c1ccc2c(c1)NC(=O)c1c(F)cccc1S2", "HBV viral production in AD38 cells", "%", 72),
    ("O=C(NCCc1ccccn1)c1ccc2c(c1)NC(=O)c1ccccc1[S+]2[O-] (stereo not shown)", "HBV viral production in AD38 cells", "%", 1),
]

We next turn to a different compound, shown below.
Which activity at 10 µM is listed for C[C@H](O)CNC(=O)c1ccc2c(c1)NC(=O)c1ccccc1S2 ?
32

---

Tested on: HBV viral production in AD38 cells
Assay: Viral load production in AD38 cells by quantitative PCR of the HBV core sequence in supernatant
Assay type: cell-based
Details: Hepatitis B virus, 144 h; 10 μM compound, 6 days at 37° C., viral load in supernatant compared against DMSO control wells; read-out: AD38 Viral Load (CpAM/DMSO %) at 10 μM
Experimental: Example 56: Assay Measuring Activity of Compounds on Viral Production in and on Viability of AD38 Cells AD38 cells were then re-suspended with 10 mL of Treatment Medium and counted. […] Viral load production was assayed by quantitative PCR of the core sequence. […] Viral load was quantitated against known standards by using ViiA™ 7 Software. […]
Readings of activity at 10 µM for the listed molecules
# output: bare number, implied unit %

# Molecule, Measurement Unit, Meas Value
records = [
    ("O=C(NCc1cccnc1)c1ccc2c(c1)NC(=O)c1ccccc1[S+]2[O-] (stereo not shown)", "%", 7),
]

Which activity at 10 µM is listed for COc1ccc(CCNC(=O)c2ccc3c(c2)NC(=O)c2ccccc2S3)cc1OC ?
20

Which activity at 10 µM is listed for CC(=O)Nc1cccc(NC(=O)c2ccc3c(c2)NC(=O)c2ccccc2S3)c1 ?
20

Which activity at 10 µM is listed for O=C(NCc1cccc(F)c1)c1ccc2c(c1)NC(=O)c1ccccc1S2 ?
10

Which activity at 10 µM is listed for NC(=O)c1ccc2c(c1)Sc1ccc(C(=O)NCCC3CCCCC3)cc1NC2=O ?
24

Which activity at 10 µM is listed for O=C(NCc1cnco1)c1ccc2c(c1)NC(=O)c1ccc(F)cc1S2 ?
12

Which activity at 10 µM is listed for N#Cc1ccc(CCNC(=O)c2ccc3c(c2)NC(=O)c2ccccc2S3)cc1 ?
7

Which activity at 10 µM is listed for O=C(NCCc1ccc(-c2ccccc2)cc1)c1ccc2c(c1)NC(=O)c1cccc(F)c1S2 ?
7

Which activity at 10 µM is listed for O=C(NCCc1ccccn1)c1ccc2c(c1)NC(=O)c1c(F)cccc1S2 ?
16

Which activity at 10 µM is listed for O=C(NCc1cccnc1)c1ccc2c(c1)NC(=O)c1ccccc1O2 ?
4

Which activity at 10 µM is listed for O=C(NCc1cncnc1)c1ccc2c(c1)NC(=O)c1cccc(F)c1S2 ?
2

Which activity at 10 µM is listed for O=C(NCCc1cccnc1)c1ccc2c(c1)NC(=O)c1cc(F)ccc1S2 ?
3
